The values you see were collected from BindingDB's records for doi:10.1021/jm00078a018.

- test method notes: Inhibition of binding of [125I]-CCK-8 to the cholecystokinin type B receptor
pIC50: −log10 of the molar value.
The following molecules are listed with their measured pIC50 values.
assay endpoint: pIC50

- molecule: "CCOC(=O)CCN1C(=O)C(NC(=O)Nc2cccc(OC)c2)N=C(c2ccccc2)c2ccccc21 (centres undefined)"
  assay endpoint: "pIC50"
  relation sign: "="
  reported: 9.00
- molecule: "CN1C(=O)[C@H](NC(=O)Nc2cccc(Cl)c2)N=C(c2ccccc2)c2ccccc21"
  assay endpoint: "pIC50"
  relation sign: "="
  reported: 8.12
- molecule: "CN1C(=O)C(NC(=O)Nc2cccc(C#N)c2)N=C(c2ccccc2)c2ccccc21 (centres undefined)"
  assay endpoint: "pIC50"
  relation sign: "="
  reported: 7.57
- molecule: "CN1C(=O)C(NC(=O)Nc2cccc(F)c2)N=C(c2ccccc2)c2ccccc21 (centres undefined)"
  assay endpoint: "pIC50"
  relation sign: "="
  reported: 7.27
- molecule: "CN1C(=O)C(NC(=O)Nc2ccc(C(=O)O)cc2)N=C(c2ccccc2)c2ccccc21 (centres undefined)"
  assay endpoint: "pIC50"
  relation sign: "<"
  reported: 7.00
- molecule: "Cc1ccc(NC(=O)NC2N=C(c3ccccc3)c3ccccc3N(CC(=O)Nc3ccncc3)C2=O)cc1 (centres undefined)"
  assay endpoint: "pIC50"
  relation sign: "="
  reported: 6.72
- molecule: "CCOC(=O)CCN1C(=O)C(NC(=O)Nc2ccc(Cl)cc2)N=C(c2ccccc2)c2ccccc21 (centres undefined)"
  assay endpoint: "pIC50"
  relation sign: "="
  reported: 8.23
- molecule: "CC(=O)Oc1cccc(NC(=O)N[C@@H]2N=C(c3ccccc3)c3ccccc3N(C)C2=O)c1"
  assay endpoint: "pIC50"
  relation sign: "="
  reported: 6.30
- molecule: "COc1cccc(NC(=O)NC2N=C(c3ccccc3)c3ccccc3N(C)C2=O)c1 (centres undefined)"
  assay endpoint: "pIC50"
  relation sign: "="
  reported: 8.52

* * *

Reported pIC50 by item:
- test method notes: Inhibition of binding of [125I]-CCK-8 to the cholecystokinin type B receptor
pIC50: −log10 of the molar value.
assay endpoint: pIC50

- compound: "CN1C(=O)C(NC(=O)Nc2cccc3ccccc23)N=C(c2ccccc2)c2ccccc21 (centres undefined)"
  reported: 7.10
- compound: "CN1C(=O)C(NC(=O)Nc2cccnc2)N=C(c2ccccc2)c2ccccc21 (centres undefined)"
  reported: 6.51
- compound: "CN1C(=O)C(NC(=O)Nc2ccc(F)cc2)N=C(c2ccccc2)c2ccccc21 (centres undefined)"
  reported: 7.18
- compound: "Cc1cccc(NC(=O)NC2N=C(c3ccccc3)c3ccccc3N(CCN(C)C)C2=O)c1 (centres undefined)"
  reported: 7.59
- compound: "O=C(Nc1ccc(Cl)cc1)NC1N=C(c2ccccc2)c2ccccc2N(CC(=O)N2CCCC2)C1=O (centres undefined)"
  reported: 8.80
- compound: "CN1C(=O)C(NC(=O)Nc2ccccn2)N=C(c2ccccc2)c2ccccc21 (centres undefined)"
  reported: 6.47
- compound: "Cc1cccc(NC(=O)NC2N=C(c3ccccc3)c3ccccc3N(Cc3nnc(C)[nH]3)C2=O)c1 (centres undefined)"
  reported: 8.01
- compound: "CN1C(=O)[C@@H](NC(=O)Nc2ccc(Cl)cc2)N=C(c2ccccc2)c2ccccc21"
  reported: 5.96
- compound: "CN1C(=O)C(NC(=O)Nc2ccc(C(F)(F)F)cc2)N=C(c2ccccc2)c2ccccc21 (centres undefined)"
  reported: 8.24
